PROTOCOL_SUMMARY: Total serum concentration in healthy human (6 volunteers) at 1 g, po administered as single dose measured after 39 hrs by gas liquid chromatography
Format: ADME, organism-based
DETAILS: read-out: Drug uptake

COMPOUND | concentration at 39 h [ng/mL]
CCCC(CCC)C(=O)[O-].[Na+] [VALPROATE SODIUM] | 15300

---

PROTOCOL_SUMMARY: Fraction unbound in healthy human (6 volunteers) serum assessed as ratio of fAUC to total AUC at 1 g, po administered as single dose by gas liquid chromatography
Format: ADME, organism-based
ENDPOINT_NAME: fraction unbound

MOLECULE | ENDPOINT_NAME | MEASURED
CCCC(CCC)C(=O)[O-].[Na+] [VALPROATE SODIUM] | fraction unbound | 0.041

---

PROTOCOL_SUMMARY: Total serum concentration in healthy human (6 volunteers) at 1 g, po administered as single dose measured after 0.66 hrs by gas liquid chromatography
Format: ADME, organism-based
DETAILS: read-out: Drug uptake

COMPOUND | concentration at 0.66 h (µg/mL)
CCCC(CCC)C(=O)[O-].[Na+] [VALPROATE SODIUM] | 95.2

---

PROTOCOL_SUMMARY: Total serum concentration in healthy human (6 volunteers) at 1 g, po administered as single dose measured after 1 hr by gas liquid chromatography
Assay type: ADME, organism-based
DETAILS: read-out: Drug uptake

MOLECULE | concentration at 1 h, µg/mL
CCCC(CCC)C(=O)[O-].[Na+] [VALPROATE SODIUM] | 105
